Entry source: patent US9724347B2

Hi there, I'd appreciate the recorded pIC50 for every entry that follows.
# System Under Test: p38MAPKγ (MAPK12) (Homo sapiens (Human), UniProt P53778)
# Sequence (P53778 whole entry): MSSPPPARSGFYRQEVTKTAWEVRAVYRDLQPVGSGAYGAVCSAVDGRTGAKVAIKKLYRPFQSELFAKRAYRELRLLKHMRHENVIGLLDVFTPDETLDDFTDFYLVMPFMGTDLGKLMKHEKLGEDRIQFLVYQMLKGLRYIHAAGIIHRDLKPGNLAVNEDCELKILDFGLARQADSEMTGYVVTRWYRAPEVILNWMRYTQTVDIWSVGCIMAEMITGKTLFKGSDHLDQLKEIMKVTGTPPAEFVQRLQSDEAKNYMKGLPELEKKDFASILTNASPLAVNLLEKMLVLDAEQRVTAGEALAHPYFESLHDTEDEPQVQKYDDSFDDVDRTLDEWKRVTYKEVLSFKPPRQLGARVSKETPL
# Test Details: p38 MAPKγ enzyme inhibition (FRET, Z-LYTE)
# Type: biochemical
pIC50: −log10 of the molar value.

[Q] For the compound shown here, `Cc1ccc(-n2nc(C(C)(C)C)cc2NC(=O)Nc2ccc(Oc3ccnc(Nc4cccc(O)c4)n3)c3ccccc23)cc1` , give the reported pIC50.
[A] 6.25

[Q] What about `COc1ccc(Nc2nccc(Oc3ccc(NC(=O)Nc4cc(C(C)(C)C)nn4-c4ccc(C)cc4)c4ccccc34)n2)cc1Cl` ?
[A] < 5.81

[Q] What about `Cc1ccc(-n2nc(C(C)(C)C)cc2NC(=O)Nc2ccc(Oc3ccnc(Nc4ccc(O)cc4C)n3)c3ccccc23)cc1` ?
[A] 6.16

[Q] What about `Cc1ccc(-n2nc(C(C)(C)C)cc2NC(=O)Nc2ccc(Oc3ccnc(Nc4cc(C)ccc4C)n3)c3ccccc23)cc1` ?
[A] < 4.79

[Q] What about `Cc1ccc(Nc2nccc(Oc3ccc(NC(=O)Nc4cc(C(C)(C)C)nn4-c4ccc(C)cc4)c4ccccc34)n2)cc1` ?
[A] < 4.78

[Q] What about `Cc1ccc(-n2nc(C(C)(C)C)cc2NC(=O)Nc2ccc(Oc3ccnc(Nc4ccc(Cl)cc4C)n3)c3ccccc23)cc1` ?
[A] < 4.80

Next:
[Q] For the compound shown here, `Cc1ccc(-n2nc(C(C)(C)C)cc2NC(=O)Nc2ccc(Oc3ccnc(Nc4ccc(O)cc4Cl)n3)c3ccccc23)cc1` , give the reported pIC50.
[A] < 5.80

---

# System: PBMC cells
# Test Details: Cell mitosis assay
# Type: cell-based, human
# Protocol Conditions: 5 μg/mL
Endpoint Name: Mitosis Assay % inhibition in PBMC Cells (%)
Numbers only, in %.

[Q] For the compound shown here, `CCOc1ccc(Nc2nccc(Oc3ccc(NC(=O)Nc4cc(C(C)(C)C)nn4-c4ccc(C)cc4)c4ccccc34)n2)cc1` , give the reported Mitosis Assay % inhibition in PBMC Cells.
[A] 70.8

[Q] What about `Cc1ccc(-n2nc(C(C)(C)C)cc2NC(=O)Nc2ccc(Oc3ccnc(Nc4cccc(O)c4)n3)c3ccccc23)cc1` ?
[A] 70.6

Hey, can you go through the list below and give me Mitosis Assay % inhibition in PBMC Cells for every item?
1. COc1cc(Nc2nccc(Oc3ccc(NC(=O)Nc4cc(C(C)(C)C)nn4-c4ccc(C)cc4)c4ccccc34)n2)ccc1O
2. COc1ccc(-n2nc(C(C)(C)C)cc2NC(=O)Nc2ccc(Oc3ccnc(Nc4ccccc4)n3)c3ccccc23)cc1

[A]
1. 63.5
2. 10.2

Hey, can you go through the list below and give me Mitosis Assay % inhibition in PBMC Cells for every item?
1. Cc1ccc(-n2nc(C(C)(C)C)cc2NC(=O)Nc2ccc(Oc3ccnc(Nc4ccc(O)cc4O)n3)c3ccccc23)cc1
2. Cc1ccc(-n2nc(C(C)(C)C)cc2NC(=O)Nc2ccc(Oc3ccnc(Nc4ccccc4)n3)c3ccccc23)cc1
3. COc1ccc(Nc2nccc(Oc3ccc(NC(=O)Nc4cc(C(C)(C)C)nn4-c4ccc(C)cc4)c4ccccc34)n2)cc1OC
4. Cc1ccc(-n2nc(C(C)(C)C)cc2NC(=O)Nc2ccc(Oc3ccnc(Nc4ccc(O)cc4)n3)c3ccccc23)cc1
5. COc1ccc(-n2nc(C(C)(C)C)cc2NC(=O)Nc2ccc(Oc3ccnc(Nc4ccc(O)cc4)n3)c3ccccc23)cc1

[A]
33.0
31.3
11.2
50.3
67.2
